target: Recombinant human GSK3β (Homo sapiens); construct: His-tag; made in house; host or cells: Sf9 insect cells / baculovirus; test: GSK-3β (Glycogen Synthase Kinase) cell free enzyme assay; format: biochemical; conditions: cell free enzyme assay; Examples 62-155
Sequence (P49841 whole entry): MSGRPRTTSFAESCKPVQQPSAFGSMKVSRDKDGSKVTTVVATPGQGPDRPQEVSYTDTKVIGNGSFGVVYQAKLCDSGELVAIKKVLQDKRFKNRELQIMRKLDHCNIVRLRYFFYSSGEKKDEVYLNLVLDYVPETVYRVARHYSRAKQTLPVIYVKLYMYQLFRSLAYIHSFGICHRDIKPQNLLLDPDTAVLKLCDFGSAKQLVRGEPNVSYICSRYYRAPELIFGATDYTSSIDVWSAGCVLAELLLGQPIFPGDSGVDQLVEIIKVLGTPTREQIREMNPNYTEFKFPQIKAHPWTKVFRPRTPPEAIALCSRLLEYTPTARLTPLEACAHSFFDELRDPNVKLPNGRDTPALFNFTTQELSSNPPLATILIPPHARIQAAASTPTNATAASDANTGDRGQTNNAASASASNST
pIC50: −log10 of the molar value.
endpoint_name: pIC50

| compound | system_tested | assay_result |
| --- | --- | --- |
| CCC(CC)C(=O)N1C[C@@H]2[C@H](C1)[C@H]2N(C)c1nc(-c2ccncc2F)cc(=O)n1C | Recombinant human GSK3β (Homo sapiens) | 8.36 |
| Cn1c(NCC2CCN(C(=O)c3ccccc3)C2)nc(-c2ccncc2)cc1=O (centres unmarked) | Recombinant human GSK3β (Homo sapiens) | 7.16 |
| CN(c1nc(-c2ccncc2F)cc(=O)n1C)[C@H]1[C@@H]2CN(C(=O)c3ccc(Cl)nc3)C[C@@H]21 | Recombinant human GSK3β (Homo sapiens) | 8.16 |
| CN(c1nc(-c2ccncc2F)cc(=O)n1C)[C@H]1[C@@H]2CN(C(=O)c3cccc(C(F)(F)F)c3)C[C@@H]21 | Recombinant human GSK3β (Homo sapiens) | 8.68 |
| CN(c1nc(-c2ccncc2F)cc(=O)n1C)[C@H]1[C@@H]2CN(C(=O)c3cc(F)cc(F)c3)C[C@@H]21 | Recombinant human GSK3β (Homo sapiens) | 8.39 |
| Cc1cc(C(=O)N2C[C@@H]3[C@H](C2)[C@H]3N(C)c2nc(-c3ccncc3F)cc(=O)n2C)cc(Cl)n1 | Recombinant human GSK3β (Homo sapiens) | 7.79 |
| CN(c1nc(-c2ccncc2F)cc(=O)n1C)[C@H]1[C@@H]2CN(C(=O)c3ccc(C(F)(F)F)nc3)C[C@@H]21 | Recombinant human GSK3β (Homo sapiens) | 7.58 |
| CN(c1nc(-c2ccncc2F)cc(=O)n1C)[C@H]1[C@@H]2CN(C(=O)c3ccoc3)C[C@@H]21 | Recombinant human GSK3β (Homo sapiens) | 8.06 |
| CN(c1nc(-c2ccncc2F)cc(=O)n1C)[C@H]1[C@@H]2CN(C(=O)c3ccnc(Cl)c3)C[C@@H]21 | Recombinant human GSK3β (Homo sapiens) | 8.58 |
| CC(C)CC(=O)N1C[C@@H]2[C@H](C1)[C@H]2N(C)c1nc(-c2ccncc2F)cc(=O)n1C | Recombinant human GSK3β (Homo sapiens) | 7.74 |
| Cn1c(NC2CN(C(=O)Cc3ccccc3)C2)nc(-c2ccncc2)cc1=O | Recombinant human GSK3β (Homo sapiens) | 6.09 |
| CN(c1nc(-c2ccncc2F)cc(=O)n1C)[C@H]1[C@@H]2CN(C(=O)Cc3ccccc3)C[C@@H]21 | Recombinant human GSK3β (Homo sapiens) | 7.85 |
| CN(c1nc(-c2ccncc2F)cc(=O)n1C)[C@H]1[C@@H]2CN(C(=O)Cc3cccs3)C[C@@H]21 | Recombinant human GSK3β (Homo sapiens) | 8.21 |
| CN(c1nc(-c2ccncc2F)cc(=O)n1C)[C@H]1[C@@H]2CN(C(=O)c3c(Cl)cccc3Cl)C[C@@H]21 | Recombinant human GSK3β (Homo sapiens) | 8.42 |
| Cn1c(NC2CCN(C(=O)c3ccccc3)C2)nc(-c2ccncc2)cc1=O (centres unmarked) | Recombinant human GSK3β (Homo sapiens) | 7.11 |
| CN(c1nc(-c2ccncc2F)cc(=O)n1C)[C@H]1[C@@H]2CN(C(=O)c3cccnc3Cl)C[C@@H]21 | Recombinant human GSK3β (Homo sapiens) | 8.66 |
| CN(c1nc(-c2ccncc2)cc(=O)n1C)C1CCN(C(=O)c2ccccc2)C1 (centres unmarked) | Recombinant human GSK3β (Homo sapiens) | 6.77 |
| Cc1ccc(C(=O)N2C[C@@H]3[C@H](C2)[C@H]3N(C)c2nc(-c3ccncc3F)cc(=O)n2C)cc1F | Recombinant human GSK3β (Homo sapiens) | 8.54 |
| CN(c1nc(-c2ccncc2F)cc(=O)n1C)[C@H]1[C@@H]2CN(C(=O)CC(F)(F)F)C[C@@H]21 | Recombinant human GSK3β (Homo sapiens) | 7.26 |
| CCCC(=O)N1C[C@@H]2[C@H](C1)[C@H]2N(C)c1nc(-c2ccncc2F)cc(=O)n1C | Recombinant human GSK3β (Homo sapiens) | 7.86 |
